Target: interaction between GMPPNP-bound recombinant K-Ras4B G12C mutant protein and cRAF RAS-binding domain (cRAF-RBD) (Homo sapiens, UniProt P01116, G12C)
Construct: His-tag (N)
Sequence (P01116 with tags, fused parts or gaps isoform P01116-2 G12C): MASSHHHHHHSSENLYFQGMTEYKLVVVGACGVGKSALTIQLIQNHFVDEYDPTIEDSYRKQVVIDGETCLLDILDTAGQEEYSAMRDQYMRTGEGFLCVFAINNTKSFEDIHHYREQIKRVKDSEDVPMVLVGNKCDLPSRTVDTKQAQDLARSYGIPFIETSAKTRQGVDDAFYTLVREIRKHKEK
Experiment: Inhibitory activity on interaction between KRAS G12C and cRAF (Alpha technology)
Conditions: GMPPNP-bound KRAS G12C incubated with compound 25° C. 1 hour; Table 2-1; read-out: IC50
Note to self: use condition met only for IC50 readings below 30 nM; a reading exactly at 30 nM still gets condition not met.

Prompt line: Strictly below 30 nM: is that where IC50 of Cc1c2cc(C(F)(F)F)c3c(c2nn1C)N(C)CCc1cc(C(=O)c2cc(F)c(NC(=O)/C=C/CN[C@H]4CCOC4)c(F)c2)n2cccc-3c12 (single isomer, unassigned) [Example 154] sits?
Response line: condition met

Prompt line: Strictly below 30 nM: is that where IC50 of Cn1cnc2c3c(c(C(F)(F)F)cc21)-c1cccn2c(C(=O)c4cc(F)c(NC(=O)/C=C/CN5CC6COC(C6)C5)c(F)c4)cc(c12)CCO3 (stereo not drawn) [Example 228] sits?
Response line: condition not met

Prompt line: Strictly below 30 nM: is that where IC50 of Cc1cnc2c3c(c(C(F)(F)F)cn12)-c1cccn2c(C(=O)c4cc(F)c(NC(=O)/C=C/CN[C@H]5CCOC5)c(F)c4)cc(c12)CCN3C (single isomer, unassigned) [Example 242] sits?
Response line: condition met

// next entry
Prompt line: Strictly below 30 nM: is that where IC50 of COCc1nc2c3c(c(C(F)F)cc2n1C)-c1cccn2c(C(=O)c4cc(F)c(NC(=O)/C=C/CNC5(C)COC5)c(F)c4)cc(c12)CCN3C [Example 224] sits?
Response line: condition met

* * *

Biological target: interaction between GMPPNP-bound recombinant K-Ras4B G12C mutant protein and cRAF RAS-binding domain (cRAF-RBD) (Homo sapiens, UniProt P01116, G12C)
Construct: His-tag (N)
Assay: Inhibitory activity on interaction between KRAS G12C and cRAF (Alpha technology)
Details: GMPPNP-bound KRAS G12C incubated with compound 25° C. 1 hour; Table 2-1; read-out: IC50
Note to self: use t only for IC50 readings below 0.03 µM; a reading exactly at 0.03 µM still gets f.

Prompt line: Strictly below 0.03 µM: is that where IC50 of Cn1cnc2c3c(c(C(F)(F)F)cc21)-c1cccn2c(C(=O)c4cc(F)c(NC(=O)/C=C/CN5C6CCC5CC6)c(F)c4)cc(c12)CCO3 sits?
Response line: t

Prompt line: Strictly below 0.03 µM: is that where IC50 of CC(O)[C@]1(C)CCCN1C/C=C/C(=O)Nc1c(F)cc(C(=O)c2cc3c4c(cccn24)-c2c(C(F)(F)F)cc4c(ncn4C)c2N(C)CC3)cc1F (single isomer, unassigned) [Example 204] sits?
Response line: f

Prompt line: Strictly below 0.03 µM: is that where IC50 of Cc1c2cc(C(F)(F)F)c3c(c2nn1C)N(C)CCc1cc(C(=O)c2cc(F)c(NC(=O)/C=C/CNC4(C)COC4)c(F)c2)n2cccc-3c12 sits?
Response line: t

Prompt line: Strictly below 0.03 µM: is that where IC50 of CO[C@H]1CC[C@H](NC/C=C/C(=O)Nc2c(F)cc(C(=O)c3cc4c5c(cccn35)-c3c(C)cc5c(ncn5C)c3N(C)CC4)cc2F)CC1 sits?
Response line: f

Prompt line: Strictly below 0.03 µM: is that where IC50 of CN1CCc2cc(C(=O)c3cc(F)c(NC(=O)/C=C/CN4C[C@@H]5C[C@H]4CO5)c(F)c3)n3cccc(c23)-c2c(C(F)(F)F)cc3c(ncn3C)c21 sits?
Response line: f

Prompt line: Strictly below 0.03 µM: is that where IC50 of COCCn1cnc2c3c(c(OC)cc21)-c1cccn2c(C(=O)c4cc(F)c(NC(=O)/C=C/CN[C@H]5CCOC5)c(F)c4)cc(c12)CCN3C (single isomer, unassigned) sits?
Response line: t

Prompt line: Strictly below 0.03 µM: is that where IC50 of COc1cc2c(ncn2C)c2c1-c1cccn3c(C(=O)c4cc(F)c(NC(=O)/C=C/CN[C@H]5CCOC5)c(F)c4)cc(c13)CCN2C (single isomer, unassigned) sits?
Response line: t

Prompt line: Strictly below 0.03 µM: is that where IC50 of Cc1cc2c(nc(C)n2C)c2c1-c1cccn3c(C(=O)c4cc(F)c(NC(=O)/C=C/CNC5(C)CCOCC5)c(F)c4)cc(c13)CCN2C sits?
Response line: f

Prompt line: Strictly below 0.03 µM: is that where IC50 of CO[C@H]1CC[C@H](NC/C=C/C(=O)Nc2c(F)cc(C(=O)c3cc4c5c(cccn35)-c3c(C(F)(F)F)cc5c(ncn5C)c3N(C)CC4)cc2F)CC1 sits?
Response line: f

Prompt line: Strictly below 0.03 µM: is that where IC50 of CC1Cc2cc(C(=O)c3cc(F)c(NC(=O)/C=C/CNC4(C)COC4)c(F)c3)n3cccc(c23)-c2c(C(F)(F)F)cc3c(ncn3C)c2O1 (single isomer, unassigned) [Example 131] sits?
Response line: t

Further cases:
Prompt line: Strictly below 0.03 µM: is that where IC50 of CN1CCc2nc(C(=O)c3cc(F)c(NC(=O)C=CCNC4(C)COC4)c(F)c3)n3cccc(c23)-c2c(C(F)(F)F)cc3c(ncn3C)c21 sits?
Response line: f
